- System: MDA-MB-435 melanoma
- test: NCI-60 one-dose screen, 48 h (100 = growth as untreated, 0 = no growth, -100 = all killed)
- measurement parameters: 10 µM unless noted
This is part of a sample that, as a whole, favours compounds with a hit. Of some 83,000 tested, about 20% had one in any assay.
Kindly state growth for each of the entries shown.
Write it as a number; the unit % goes unstated.

Request: Consider the compound shown here: BrC1=C(Br)C(Br)(Br)C(Br)=C1Br What is its recorded growth?
Result: 75.6

Request: Would you kindly share the measured growth for Brc1ccc(/C=C(/C2=NCCN2)n2ccc3ccccc32)cc1 ?
Result: 58.2

Request: I would be grateful if you could share the reported growth for C=C(CNCCc1ccc(O)cc1)[C@@H]1CC[C@]2(CO)CC[C@]3(C)[C@H](CC[C@@H]4[C@@]5(C)CCC(NCCc6ccc(O)cc6)C(C)(C)[C@@H]5CC[C@]43C)[C@@H]12 (some centres undefined) .
Result: -89.9

Request: Param item = COc1cc(/C=C2/C=C(c3ccc(C(C)(C)C)cc3)N(CCc3ccc(S(N)(=O)=O)cc3)C2=O)cc(OC)c1OC ; retrieve measured growth.
Result: 52.8

Request: Look up growth: COc1ccc(N2CCN(S(=O)(=O)c3oc(-c4ccccc4)nc3C#N)CC2)cc1
Result: 65.2

Request: Return reported growth; argument: O=C1/C(=C/c2ccc(-c3cccc(C(F)(F)F)c3)o2)SC(=S)N1CCc1ccc(O)cc1
Result: 52.6

Request: Give the measured growth of COc1c(F)cc(-n2c(C(=O)N3CC(F)C3)cc3cccnc32)cc1F .
Result: 116

Request: Given CCCc1cc(C(N)=S)ccn1 , state its recorded growth.
Result: 105

Request: Give the measured growth of Nc1nc(N)c2c(n1)NC(c1cccc(Nc3ccnc4cc(C(F)(F)F)ccc34)c1)CC(c1ccc(F)cc1)=N2 (centres undefined) .
Result: -24.7

These data points were gathered from PubChem BioAssay (NCI).
